- System: OVCAR-5
- measurement_notes: NCI tumour cell line growth inhibition, 48 h
Activity calls are given as the source filed them. No stated cut-off is given here; in the data, active = GI50 up to about 1.1 µM and inactive = higher.
quantity_kind: GI50

Prompt: # query: GI50 | item C/C(Sc1ccccc1)=C1/CCCN(Cc2ccccc2)C1 | system: OVCAR-5
Completion: 23.7 µM (inactive)

Prompt: Record NC(=O)c1ccc(NCC2=CC(=O)C=CC2=O)cc1 : what is its GI50 with OVCAR-5?
Completion: 23 µM (inactive)

Prompt: Requested read-out GI50, target or system OVCAR-5, entry O=C(/C=C/c1ccc(Br)cc1)c1ccc(NCc2nc3ccccc3[nH]2)cc1
Completion: > 59.8 µM (inactive)

Prompt: // fetch OVCAR-5 GI50 for C=C(C)C(O)C(O)c1c(OC)ccc2ccc(=O)oc12 (stereo not drawn)
Completion: > 100 µM (inactive)

Prompt: Entry CC(CO)CCNc1ncnc2c1ncn2CCC#N (stereo not drawn) , system OVCAR-5: what GI50 was measured?
Completion: > 100 µM (inactive)

Prompt: Form field: GI50 recorded for O=C(O)c1ccccn1 [2-PICOLINIC ACID] with OVCAR-5 (enter value)
Completion: > 100 µM (inactive)

Prompt: // fetch OVCAR-5 GI50 for O=C1c2ccccc2C(=O)N1CCCSc1ccccc1
Completion: > 100 µM (inactive)

Prompt: Hello, I am looking for reported GI50 with OVCAR-5 for COC(=O)C1N=CSCC1(C)O (stereo not drawn) . Could you help?
Completion: > 100 µM (inactive)

====

- Tested on: MDA-N
- measurement_notes: NCI tumour cell line growth inhibition, 48 h
Active and inactive are the calls of the source. Cut-off read from the data, not from the text of the source: active = GI50 up to about 1.1 µM and inactive = higher.
Return exactly one item of active, inactive

Prompt: Dear all, I need the recorded test outcome for Clc1ccccc1C(c1ccccc1)(c1ccccc1)n1ccnc1 [CLOTRIMAZOLE] , thank you.
Completion: inactive

Prompt: Record lookup: outcome of this test for CCN(CC)/C(Cl)=C(Cl)\C(=C1\Nc2ccc(OC)cc21)[N+](=O)[O-] ?
Completion: inactive

Prompt: Look up the recorded call for COc1cc(C2c3cc4c(cc3C(O)C3CCC(=O)N23)OCO4)cc(OC)c1OC (stereo not given) in this test.
Completion: inactive

Prompt: Please indicate how the test categorized CCc1cccc(C(C)C)c1NC1=C([n+]2ccc(C)cc2)C(=O)c2ccccc2C1=O.[O-][Cl+3]([O-])([O-])[O-] .
Completion: inactive

Prompt: // outcome(item) with item = C=C(C)C1CCC2=CC(CC3(C)OC3C3=CC(C(=O)OC)=C(C1)O3)OC2=O (stereo not given)
Completion: inactive

Prompt: Just curious, what result did COC(=O)C12C(=O)CC3CCC1C32C(=O)OC (stereo not given) get here?
Completion: inactive

Prompt: Record request — test call for NS(=O)(=O)c1ccc(/N=N/c2ncccc2O)cc1
Completion: inactive

Prompt: For c1ccc2c(NCCCCCCNc3c4ccccc4nc4ccccc34)c3ccccc3nc2c1 , which call appears in the assay record?
Completion: active

Prompt: Name the outcome recorded for C[C@@H]1O[C@@H]2OCC[C@@H]2C2=C1C(=O)c1ccccc1C2=O in the assay.
Completion: inactive

Prompt: Would you mind telling me which call this test gave Cc1cc(S(=O)(=O)O)ccc1/N=N/c1ccc(/N=N/c2c(O)ccc3ccccc23)c(C)c1 ?
Completion: inactive

Prompt: Any idea what this test logged for CC(C)(C)OC[C@H](O)CC#N ?
Completion: inactive

Prompt: Could you please tell me the result logged for CCCCCCCCCCCCCCCCCCN(C)CC(COC)OP(=O)([O-])OCC[N+](C)(C)C (stereo not given) in this assay?
Completion: inactive

Prompt: Query: recorded result category for CC(CN(C)C)C(O)(c1ccccc1)c1ccccc1 (stereo not given) in this test
Completion: inactive

Prompt: Test call, this molecule: CC(C)(C)OC(=O)N1Cc2cc(O)ccc2C[C@H]1C(=O)O
Completion: inactive

Prompt: Can you look up the reported call for NC(CCP(=O)(O)O)C(=O)O (stereo not given) for me?
Completion: inactive

Prompt: Could you check what this test reported for COC(=O)c1ccc(C)cc1CC1Cc2cc(C)ccc2C1=O (stereo not given) ?
Completion: inactive

Prompt: For Cc1cc(C)c(-n2c(C)c(C)c(C#N)c2N)c(C)c1 , which call appears in the assay record?
Completion: inactive

Prompt: # fetch the recorded call for O=C1N[C@@H](c2c[nH]c3ccc(Br)cc23)C(=O)N[C@H]1c1c[nH]c2ccc(Br)cc12 here
Completion: inactive

Prompt: // param item: O=C(c1cccs1)N(C(=O)N1CCCCC1)c1ccccc1 ; yields the recorded call
Completion: inactive

Prompt: Please let me know the test result on file for C#CCCCC(=O)N(C(=O)C[S+]([O-])CC)c1ccccc1 (stereo not given) .
Completion: inactive

====

- Tested on: SR
- measurement_notes: NCI tumour cell line growth inhibition, 48 h
Activity calls are given as the source filed them. Rule as the data show it: active = GI50 up to about 1.1 µM and inactive = higher. Peptide text beside a SMILES is read from it. * marks the point of attachment. Boc = CC(C)(C)OC(=O)*
Please reply with one of these outcomes: 1.0 for active, 0.0 for inactive

Prompt: Recorded test call requested for N#CC(/C(CCCC(=O)Nc1cccc([N+](=O)[O-])c1)=N\NC(=O)c1c(O)ccc2ccccc12)c1nc2ccccc2s1 (stereo not drawn)
Completion: 0.0

Prompt: Returns: the outcome recorded for CCOC(=O)CN1C(=O)c2c(c(C)n(-c3ccccc3)c2C)C1=O in this assay.
Completion: 0.0

Prompt: // outcome(item) with item = Cc1[nH]c2ccccc2c1C1Cc2ccccc2N1C(=O)/C(Cl)=C/c1ccccc1 (stereo not drawn)
Completion: 0.0

Prompt: Please share the test call associated with COC(=O)C(Cc1c[nH]c2ccccc12)NC(=O)C(Cc1c[nH]c2ccccc12)NC(=O)C(Cc1c[nH]c2ccccc12)NC(=O)C(Cc1c[nH]c2ccccc12)NC(=O)C(Cc1c[nH]c2ccccc12)NC(=O)OC(C)(C)C (stereo not drawn) (Boc-WWWWW-OMe; configuration not given here) .
Completion: 0.0

Prompt: State the result this test recorded for N#CC(C#N)=C(N)/C(C#N)=C/c1ccc(O)c(O)c1 .
Completion: 0.0

Prompt: Could you please tell me the result logged for CCOC(=O)n1c2ccccc2c(=O)n1CCO in this assay?
Completion: 0.0

Prompt: Hello, I am checking results. What call was entered for COc1c(C=O)c2c(c(OC)c1OC)-c1ccc(OC)c(=O)cc1[C@@H](NC(C)=O)CC2 ?
Completion: 1.0

Prompt: Returns: the outcome recorded for COc1cc(/C=C2\N=C(c3ccccc3)N(/N=C/c3cc4cc(C)ccc4nc3Cl)C2=O)cc(OC)c1OC in this assay.
Completion: 0.0

====

Please respond with reported GI50 for every item in the list.
- Tested on: OVCAR-8
- measurement_notes: NCI tumour cell line growth inhibition, 48 h
Active and inactive are the calls of the source. No stated cut-off is given here; in the data, active = GI50 up to about 1.1 µM and inactive = higher.

Prompt: Looking for the measured GI50 of CC(C)(C)OC(=O)NC(CCCCNC(=O)OCc1ccccc1)C(=O)NCCNc1ccc(NCCNC(=O)C(CCCCNC(=O)OCc2ccccc2)NC(=O)OC(C)(C)C)c2c1C(=O)c1ccccc1C2=O (centres undefined) , can you help?
Completion: 8.36 µM (inactive)

Prompt: # get_value(readout='GI50', item= O=C(Nc1ccccc1)c1ccc(Cl)c([N+](=O)[O-])c1 )
Completion: 9.33 µM (inactive)

Prompt: Which GI50 is reported for this molecule? COC(=O)C1=C(C(=O)OC)C2=S(SC3=C2CCCC3)S1 (centres undefined)
Completion: 12.9 µM (inactive)

Prompt: Need GI50, item O=c1c(C(c2ccc([N+](=O)[O-])cc2)c2c(O)c3ccccc3n(-c3ccccc3)c2=O)c(O)c2ccccc2n1-c1ccccc1
Completion: 14.9 µM (inactive)

====

- System: M14
- measurement_notes: NCI tumour cell line growth inhibition, 48 h
Calls of active or inactive are those of the source. Rule as the data show it: active = GI50 up to about 1.1 µM and inactive = higher.
Respond using exactly one of the listed classes: active, inactive

Prompt: Which outcome was entered for the molecule CCC/C=C/C=C/C1CC(O)C(O)C(=O)C1CO (stereo not drawn) in this test?
Completion: inactive

Prompt: Test call, this molecule: CCOC(=O)N[C@H]1CCc2cc(OC)c(OC)c(OC)c2-c2ccc(SC)c(=O)cc21
Completion: active

Prompt: Dear all, I need the recorded test outcome for O=C(NO)c1ccc(C(=O)NO)cc1 , thank you.
Completion: inactive

Prompt: Please indicate how the test categorized Cc1ncc([N+](=O)[O-])n1CCNC(=O)Cn1ccnc1[N+](=O)[O-] .
Completion: inactive

Prompt: GET /call?item= CC1(C)OC(=O)C(=C2CC(c3ccccc3)c3ccccc32)C(=O)O1 (stereo not drawn) returns the recorded outcome of this test.
Completion: inactive

Prompt: Which outcome was entered for the molecule CC1CC[C@@]2(OC1)OC1C[C@H]3[C@@H]4CC=C5CC(OC6OC(CO)C(OC7OC(CO)C(O)C(OC8OCC(O)C(O)C8O)C7OC7OC(CO)C(O)C(O)C7O)C(O)C6O)CCC5(C)[C@H]4CCC3(C)C1[C@@H]2C (stereo partly drawn) in this test?
Completion: inactive

Prompt: Give the logged outcome of this assay for the following molecule: O=[N+]([O-])c1cc2c(c3nonc13)OCCCCO2
Completion: inactive

Prompt: Hi team, can someone confirm the assay call for Cc1cc(S(=O)(=O)n2ccnc2O)c(SCCCN(C)C)cc1Cl ?
Completion: inactive

Entry source: ChEMBL document CHEMBL1201862
